Can you tell me self-cleavage for the items I'm about to list?
B1: Hairpin Ribozyme (parent)
chain: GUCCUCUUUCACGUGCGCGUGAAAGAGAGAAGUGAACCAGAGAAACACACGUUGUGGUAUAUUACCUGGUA

# Variants of: B1
# METHOD_SUMMARY: self-cleavage, relative activity (ratio to wild type); higher = more cleavage; co-transcriptional

[ask] Consider the variant shown here: UUCCUCUUUCACGUGCGCGUGAAAGAGAGAAGUGAACGAGAGAAACACACGUUGUGGUAUAUUACCUGGUA What is its recorded self-cleavage?
[reply] 0.0981

[ask] Consider the variant shown here: GUCCUCUUUCACGUGCGCGUGAAAGAGGGAAGUGAACCAGAGAAACACACGUUGUCGUAUAUUACCUGGUA What is its recorded self-cleavage?
[reply] 0.0641

[ask] Consider the variant shown here: GUCCUCUUUCACGGGCGCGUGAAAGAGAGAAGUGAACCAGAGAAACACACUUUGUGGUAUAUUACCUGGUA What is its recorded self-cleavage?
[reply] 1.02

[ask] Consider the variant shown here: GUCCUCUUUCACGUGCGCGUGUAAGGGAGAAGUGAACCAGAGAAACACACGUUGUGGUAUAUUACCUGGUA What is its recorded self-cleavage?
[reply] 0.743

[ask] Consider the variant shown here: GUCCUCUUUCACGUGCGCGUCAAAGAGAGAAGUGAACUAGAGAAACACACGUUGUGGUAUAUUACCUGGUA What is its recorded self-cleavage?
[reply] 0.452

[ask] Consider the variant shown here: GUCCUCUUUCACGUGCGCGUGAAAGAGAGAAUUGAACCAGAGAAACACACGCUGUGGUAUAUUACCUGGUA What is its recorded self-cleavage?
[reply] 0.144

[ask] Consider the variant shown here: GUCCUCUUUCCCGUGCGCGUGAAAGAGAGAAGUGAACCAGAGAAACACACGUUGUGGUCUAUUACCUGGUA What is its recorded self-cleavage?
[reply] 0.0956

[ask] Consider the variant shown here: GACCUCUUUCACGUGCGCGUGAAAGAGAGAAGUGAAUCAGAGAAACACACGUUGUGGUAUAUUACCUGGUA What is its recorded self-cleavage?
[reply] 0.23

[ask] Consider the variant shown here: GUCCUCUUUCACGUGCGCGUGAAAGAGAGAAGUGAACCAGAGCAACACACGUUGUGGUCUAUUACCUGGUA What is its recorded self-cleavage?
[reply] 0.195

[ask] Consider the variant shown here: GUCCUCUUUCACGUGCGCGUGAAUGAGAGAAGUGCACCAGAGAAACACACGUUGUGGUAUAUUACCUGGUA What is its recorded self-cleavage?
[reply] 0.951

[ask] Consider the variant shown here: GUCCUCUUUCACGUGCGCGUGAAAGAGAGAAGUGAACCACAGAAACUCACGUUGUGGUAUAUUACCUGGUA What is its recorded self-cleavage?
[reply] 0.0303

[ask] Consider the variant shown here: GUCCUCUUUCACGUGCGCGUGAAAGAGAGAAGUGAACCCGAGAAACAUACGUUGUGGUAUAUUACCUGGUA What is its recorded self-cleavage?
[reply] 0.145

[ask] Consider the variant shown here: GUCCUCUUUCACGUGCGCGUGAAAGAGAGCAGUGAACCAGAGAAACACACGUUGUGGUAUAUUACCUGGCA What is its recorded self-cleavage?
[reply] 0.127

[ask] Consider the variant shown here: GUCCUCUUUCACGUGCGCGUGAAAGAGAGAAGUGAACGAAAGAAACACACGUUGUGGUAUAUUACCUGGUA What is its recorded self-cleavage?
[reply] 0.148

[ask] Consider the variant shown here: GUCCUCUCUGACGUGCGCGUGAAAGAGAGAAGUGAACCAGAGAAACACACGUUGUGGUAUAUUACCUGGUA What is its recorded self-cleavage?
[reply] 0.114

[ask] Consider the variant shown here: GUCCUCUUUCACGUGCGCGUGAAAGAGAGCAGUGAACCAGAGAUACACACGUUGUGGUAUAUUACCUGGUA What is its recorded self-cleavage?
[reply] 0.106

[ask] Consider the variant shown here: GUCCUCUUUCACGUGCGCAUGAAAGAGAGAAGUGAACCAGAGAAAGACACGUUGUGGUAUAUUACCUGGUA What is its recorded self-cleavage?
[reply] 0.176

[ask] Consider the variant shown here: GUCCUCUUUCACGUGCGCGUGAGAGAGAGAAGUGAACCAGAGAAACACACGUUGUGGUAUAUUCCCUGGUA What is its recorded self-cleavage?
[reply] 0.2

[ask] Consider the variant shown here: GUCCUCUUUCACGUGCGCGUGAAUGAGAGAAGUGAACCAGAGAAACACACUUUGUGGUAUAUUACCUGGUA What is its recorded self-cleavage?
[reply] 0.78

[ask] Consider the variant shown here: GUCCUCUUUCACGUGCGCGUGAAAGAGAGAAGUGAAUCAGAGAAACACACGUUGGGGUAUAUUACCUGGUA What is its recorded self-cleavage?
[reply] 0.159

[ask] Consider the variant shown here: GUCCUCUUUCACGUGCGUGUGAAAGAGAGAAGUGAACAAGAGAAACACACGUUGUGGUAUAUUACCUGGUA What is its recorded self-cleavage?
[reply] 0.111

[ask] Consider the variant shown here: GUCCUCUGUCACGUGCGCGUGAAAGAGAGAAGUGAACCAGAGAAACACACGUUGUGGUAUAUUACUUGGUA What is its recorded self-cleavage?
[reply] 0.412

[ask] Consider the variant shown here: GUCCACUUUCACGUGCGCGUGGAAGAGAGAAGUGAACCAGAGAAACACACGUUGUGGUAUAUUACCUGGUA What is its recorded self-cleavage?
[reply] 0.308

[ask] Consider the variant shown here: GUCCUCUUUCACGUGCGCGUGAAAGAGAUAAGUGAACCAGAGAAACACACGUUGUGGUAUAUUCCCUGGUA What is its recorded self-cleavage?
[reply] 0.142

[ask] Consider the variant shown here: GUCCUCUUUCUCGUGCGCGUUAAAGAGAGAAGUGAACCAGAGAAACACACGUUGUGGUAUAUUACCUGGUA What is its recorded self-cleavage?
[reply] 0.915

[ask] Consider the variant shown here: GUACUCUUUCACGUGCGCGUGAAAGUGAGAAGUGAACCAGAGAAACACACGUUGUGGUAUAUUACCUGGUA What is its recorded self-cleavage?
[reply] 0.653

[ask] Consider the variant shown here: GUCCUCUUUCACGUGCGCGUGAAAGAGAGAAGUGAACCAGAGAAACACACUUUGUGGUAUAUUACCUGGCA What is its recorded self-cleavage?
[reply] 1.01

[ask] Consider the variant shown here: GUCCUCUUUCACGUGCGCGUGAAAGAGAGAAGGGAACCAGAGAAACACACGUUGUGGUAUACUACCUGGUA What is its recorded self-cleavage?
[reply] 0.0629

[ask] Consider the variant shown here: GUCCUCUUUCACGUGCGCGUGAAAGAGAGAAGUGCACCAGAGAAACACACGUUGUGGUAUAUUACCUGGUU What is its recorded self-cleavage?
[reply] 0.668

[ask] Consider the variant shown here: GUCCUCUUUCACGUGCGCGUGAAAGAGAGAAGUGAACCAGAGCAACACACGUUGUGAUAUAUUACCUGGUA What is its recorded self-cleavage?
[reply] 0.137

[ask] Consider the variant shown here: GUCCUCUUUCACGUGCACGUGAAAGAGAGAAGUGAACCAGAGAAACACACGUUGUGGUAUUUUACCUGGUA What is its recorded self-cleavage?
[reply] 0.208
